Biological target: Carbonic anhydrase 2 (Homo sapiens) (UniProt P00918)
Assay: CAII small-molecule binders, profiling panel, biochemical, small-molecule microarray, Alexa647-labelled CAII (AID 1122)
Details: CAII-A647 binding fluorescence, higher = more signal
Reported composite z-score by item:

Record CCN1C(C)=C(C(=O)OC)[C@@H](c2ccccc2)N2C(=O)[C@@]3(C(=O)OC)O[C@@]12[C@@H]1C(=O)CCC[C@@H]13 / Carbonic anhydrase 2 (Homo sapiens) (UniProt P00918), composite z-score recorded as 0.558

----------
Target: NADPH oxidase 2 (Homo sapiens) (UniProt P04839)
Sequence (P04839 whole entry, looked up): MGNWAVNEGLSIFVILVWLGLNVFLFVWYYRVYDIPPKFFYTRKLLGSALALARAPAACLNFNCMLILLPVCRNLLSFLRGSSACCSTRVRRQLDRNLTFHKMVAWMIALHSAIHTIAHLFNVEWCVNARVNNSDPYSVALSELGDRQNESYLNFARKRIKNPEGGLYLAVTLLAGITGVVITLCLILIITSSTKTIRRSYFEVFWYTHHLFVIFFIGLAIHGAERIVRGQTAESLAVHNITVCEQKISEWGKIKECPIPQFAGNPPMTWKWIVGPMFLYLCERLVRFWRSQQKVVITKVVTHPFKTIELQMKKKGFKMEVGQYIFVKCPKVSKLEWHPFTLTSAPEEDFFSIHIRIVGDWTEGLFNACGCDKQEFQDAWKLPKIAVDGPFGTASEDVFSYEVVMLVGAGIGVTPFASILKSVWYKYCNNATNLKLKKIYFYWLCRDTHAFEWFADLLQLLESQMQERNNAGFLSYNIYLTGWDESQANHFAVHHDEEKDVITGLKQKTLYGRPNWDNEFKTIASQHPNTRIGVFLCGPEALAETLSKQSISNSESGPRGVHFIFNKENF
Assay: NOX2-dependent H2O2 signal modulators, primary screen, NOX inhibitor project, cell-based, HEK293-NOX2, PMA-stimulated, Amplex Red fluorescence (AID 1159); also: test concentration not given here
Settings: 45 min, higher = more signal, called active from +8 up or from −8 down
Reported z-score by item:
Keep it simple and answer with nothing but the number.

Examples with their reported z-score follow.
{"ITEM_SMILES": "O=C1O[C@@H](c2ccccc2)[C@@H](c2ccccc2)N2[C@@H](c3ccccc3OCCO)[C@]3(C(=O)Nc4ccc(C#CC5=CCCCC5)cc43)[C@@H](C(=O)O)[C@H]12", "PROPERTY_MEASURED": "z-score", "OBSERVED_VALUE": 2.26}
{"ITEM_SMILES": "O=C(O)[C@@H]1Cc2c([nH]c3ccccc23)[C@@H](c2ccccc2)N1", "PROPERTY_MEASURED": "z-score", "OBSERVED_VALUE": 1.04}

Record C=C(COC)/C(=C/C[C@H](OC(C)=O)c1ccc(OCCO)cc1)c1cnc2ccccc2c1 / NADPH oxidase 2 (Homo sapiens) (UniProt P04839), z-score recorded as 1.32

Record NC(=O)NCC#Cc1ccc2c(c1)[C@]1(C(=O)N2)[C@H](C(=O)N2CCCCCCC2)[C@H]2C(=O)O[C@H](c3ccccc3)[C@H](c3ccccc3)N2[C@@H]1c1ccccc1OCCO / NADPH oxidase 2 (Homo sapiens) (UniProt P04839), z-score recorded as 2

Record [N-]=[N+]=NCc1ccccc1C[C@]1(C(N)=O)N=C(c2ccc(OCCCO)cc2)O[C@H]1c1ccccc1CN=[N+]=[N-] / NADPH oxidase 2 (Homo sapiens) (UniProt P04839), z-score recorded as -1.06

Record C[C@@H]1CC[C@H]2C(=O)N3CCC[C@H]3C(=O)N2[C@H]1c1ccc(Br)cc1 / NADPH oxidase 2 (Homo sapiens) (UniProt P04839), z-score recorded as 0.607

Record CCOC(=O)C[C@H]1[C@H](OC(=O)Cc2ccc3c(c2)OCO3)[C@@H](NC(=O)c2ccc3ccccc3c2)c2cc(OCCCO)ccc2N1C(=O)Cc1ccc(OC)cc1 / NADPH oxidase 2 (Homo sapiens) (UniProt P04839), z-score recorded as -0.629

----------
System: Sonic hedgehog protein (Shh)
Test: small-molecule binders of Shh protein, primary screen, biochemical, small-molecule microarray, 635/667 nm fluorescence (AID 1151);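 also: Shh protein binding to compounds spotted on small-molecule microarray slides; score combines spot fluorescence intensity with signal-to-noise across triplicate slides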
Details: small-molecule microarray binding, 635 nm fluorescence; higher = more signal
Reported composite z-score by item:
Keep it simple and answer with nothing but the number.

{"ITEM_SMILES": "COc1cc([C@@H]2N[C@H](C(=O)O)Cc3c2[nH]c2ccccc32)cc(OC)c1OC", "composite z-score": 0.342}
{"ITEM_SMILES": "O=C(NCC(F)(F)F)[C@@H]1c2ccccc2C(=O)N(Cc2ccccc2Cl)[C@H]1c1ccc(CO)cc1", "composite z-score": -0.59}
{"ITEM_SMILES": "CO[C@H]1COC(=O)CC=C[C@H](C)COC(=O)[C@@H](OCc2ccccc2)C=C[C@@H]1C", "composite z-score": 2.06}

Record C=CCc1cccc([C@H]2N[C@H](C(=O)O)CC[C@@H]2C)c1 / Sonic hedgehog protein (Shh), composite z-score recorded as 1.54

Record CO[C@H]1COC(=O)[C@H](C)COC(=O)[C@H](Cc2ccccc2)NC(=O)CC=C[C@H]1C / Sonic hedgehog protein (Shh), composite z-score recorded as 1.61

Record COc1ccc(C(=O)Nc2ccc(CN3C(=O)[C@]4(O[C@H](CCn5cc(CCO)nn5)[C@@H]([Si](C)(C)c5ccc(OC)cc5)[C@@H]4C)c4ccccc43)cc2)cc1 / Sonic hedgehog protein (Shh), composite z-score recorded as 1.99

Record COC(=O)[C@H]1[C@@H]2COc3ccccc3[C@H]2N[C@H]1C(=O)OC / Sonic hedgehog protein (Shh), composite z-score recorded as 0.264

Record COCCCNC(=O)[C@@]1(c2ccc([N+](=O)[O-])cc2)CC(=O)N(C2CCCCC2)[C@@H]1c1ccc(CO)cc1 / Sonic hedgehog protein (Shh), composite z-score recorded as -0.256

Record [N-]=[N+]=NCc1ccccc1C[C@]1(C(=O)N2CCCCC2)N=C(c2ccc(OCCCO)cc2)O[C@H]1c1ccccc1CN=[N+]=[N-] / Sonic hedgehog protein (Shh), composite z-score recorded as -0.0292

Record CC(C)NC(=O)[C@@]1(Cc2ccccc2I)c2ccccc2C(=O)N(C2CCCCC2)[C@H]1c1ccc(CO)cc1 / Sonic hedgehog protein (Shh), composite z-score recorded as 0.28

Record O=C(CS)NCCCCCCNC(=O)[C@@H]1C[C@@H]2C(=O)N[C@@H](Cc3ccccc3)C(=O)N2[C@@H]1c1ccc(O)cc1 / Sonic hedgehog protein (Shh), composite z-score recorded as 1.86

Record CO[C@@H]1COC(=O)[C@@H]2CCCN2C(=O)CC=C[C@@H](C)[C@H](OC)COC(=O)[C@@H]2CCCN2C(=O)CC=C[C@H]1C / Sonic hedgehog protein (Shh), composite z-score recorded as 2.1

Record CCOC(=O)C[C@H]1[C@H](OC(=O)c2cc3ccccc3oc2=O)[C@@H](NC(=O)c2ccc3ccccc3c2)c2cc(OCCCO)ccc2N1C(=O)c1ccc2ccccc2n1 / Sonic hedgehog protein (Shh), composite z-score recorded as 0.43

Record CCN1C(C)=C(C(=O)OC)[C@@H](c2ccccc2)N2C(=O)[C@@]3(C(=O)OC)O[C@@]12[C@@H]1C(=O)N(C)C(=O)[C@@H]13 / Sonic hedgehog protein (Shh), composite z-score recorded as 0.971

Record O=C1O[C@@H](c2ccccc2)[C@@H](c2ccccc2)N2[C@@H](c3ccc(OCCO)cc3)[C@]3(C(=O)Nc4ccc(C#CCCO)cc43)[C@@H](C(=O)N3CCN(c4ncccn4)CC3)[C@H]12 / Sonic hedgehog protein (Shh), composite z-score recorded as 1.93
